- PROTOCOL: Metabolic stability in Wistar rat plasma assessed as half life by HPLC analysis
- Type: ADME, cell-free
Where a SMILES comes first, the peptide text is derived from it.
ASSAY ENDPOINT: half-life (h)
# unit: h | format: bare number

// half-life lookup, compound = CC[C@H](C)[C@H](NC(=O)[C@H](CCC(N)=O)NC(=O)[C@H](CCCNC(=N)N)NC(=O)[C@H](CCCNC(=N)N)NC(=O)[C@@H]1CSSC[C@H](NC(=O)[C@@H]2CCC(=O)N2)C(=O)N1)C(=O)N[C@H]1CSSC[C@@H](C(N)=O)NC1=O (HELM PEPTIDE1{[Glp].C.C.R.R.Q.I.C.C.[am]}$PEPTIDE1,PEPTIDE1,2:R3-3:R3|PEPTIDE1,PEPTIDE1,8:R3-9:R3$$$V2.0) , result: 0.25

// half-life lookup, compound = "N=C(N)NCCC[C@@H](NC(=O)[C@@H]1Cc2ccccc2CN1)C(=O)N[C@H](CCCNC(=N)N)C(=O)N[C@@H](CCC(N)=O)C(=O)N[C@@H](CC1CCCCC1)C(=O)N[C@H]1CSSC[C@@H](C(N)=O)NC1=O" , result: 0.75

// half-life lookup, compound = CC[C@H](C)[C@H](NC(=O)[C@H](CCC(N)=O)NC(=O)[C@H](CCCNC(=N)N)NC(=O)[C@@H](N)CCCNC(=N)N)C(=O)N[C@H]1CSSC[C@@H](C(N)=O)NC1=O (HELM PEPTIDE1{R.R.Q.I.C.C.[am]}$PEPTIDE1,PEPTIDE1,5:R3-6:R3$$$V2.0) , result: 0.75

// half-life lookup, compound = "COc1ccc(C(=O)N2CCC[C@H]2C(=O)N[C@H](CCCNC(=N)N)C(=O)N[C@H](CCCNC(=N)N)C(=O)N[C@@H](CCC(N)=O)C(=O)N[C@@H](CS)C(=O)N[C@@H](CC2CCCCC2)C(=O)N[C@H]2CSSC[C@@H](C(N)=O)NC2=O)cc1" , result: 2

// half-life lookup, compound = "N=C(N)NCCC[C@@H](NC(=O)c1cnc2ccccc2c1)C(=O)N[C@H](CCCNC(=N)N)C(=O)N[C@@H](CCC(N)=O)C(=O)N[C@@H](CC1CCCCC1)C(=O)N[C@H]1CSSC[C@@H](C(N)=O)NC1=O" , result: 0.75

// half-life lookup, compound = "N=C(N)NCCC[C@@H](NC(=O)[C@@H](CCCNC(=N)N)NC(=O)[C@@H]1CCCN1C(=O)c1ccccc1)C(=O)NCC(=O)N[C@@H](CC1CCCCC1)C(=O)N[C@H]1CSSC[C@@H](C(N)=O)NC1=O" , result: 1

// half-life lookup, compound = "N=C(N)NCCC[C@@H](NC(=O)[C@@H](CCCNC(=N)N)NC(=O)[C@@H]1CCCN1C(=O)c1ccc(O)cc1)C(=O)N[C@@H](CCC(N)=O)C(=O)N[C@@H](CS)C(=O)N[C@@H](CC1CCCCC1)C(=O)N[C@H]1CSSC[C@@H](C(N)=O)NC1=O" , result: 2

// half-life lookup, compound = "N=C(N)NCCC[C@@H](NC(=O)[C@@H]1CCC(=O)N1)C(=O)N[C@H](CCCNC(=N)N)C(=O)N[C@@H](CCC(N)=O)C(=O)N[C@@H](CC1CCCCC1)C(=O)N[C@H]1C[Se]SC[C@@H](C(N)=O)NC1=O" , result: 6

// half-life lookup, compound = "N=C(N)NCCC[C@@H](NC(=O)[C@@H](CCCNC(=N)N)NC(=O)[C@@H]1CCCN1C(=O)c1ccc(Cl)c(Cl)c1)C(=O)N[C@@H](CCC(N)=O)C(=O)N[C@@H](CS)C(=O)N[C@@H](CC1CCCCC1)C(=O)N[C@H]1CSSC[C@@H](C(N)=O)NC1=O" , result: 1

// half-life lookup, compound = "N=C(N)NCCC[C@@H](NC(=O)[C@@H](CCCNC(=N)N)NC(=O)[C@@H]1CCCN1C(=O)c1ccccc1)C(=O)N[C@@H](CCC(N)=O)C(=O)N[C@H](C(=O)N[C@H]1CSSC[C@@H](C(N)=O)NC1=O)C1CCCCC1" , result: 20

// half-life lookup, compound = "N=C(N)NCCC[C@@H](NC(=O)[C@@H](CCCNC(=N)N)NC(=O)[C@@H]1CCCN1C(=O)c1ccccc1)C(=O)N[C@@H](CCC(N)=O)C(=O)N[C@@H](CC1CCCCC1)C(=O)N[C@H]1CSSC[C@@H](C(N)=O)NC1=O" , result: 4
